Reported growth inhibition values for a set of compounds
System: SUDIPGVI (diffuse intrinsic pontine glioma line)
assay-notes: growth inhibition (% activity, log2 RLU normalised to DMSO / staurosporine); higher = more growth inhibition
condition-details: 33 µM
outcome-measure: growth inhibition

INSERT INTO measurements (compound, result) VALUES
  ('CC(NC(=O)Cc1cc(F)cc(F)c1)C(=O)NC(C(=O)OC(C)(C)C)c1ccccc1 (centres undefined)', '-0.444%'),
  ('CN(C)c1nc(N(C)C)nc(N(C)C)n1', '-2.53%'),
  ('CCC[C@H](N[C@@H](C)C(=O)N1[C@H](C(=O)O)C[C@@H]2CCCC[C@@H]21)C(=O)OCC', '1.95%'),
  ('C=C1/C(=C\C=C2/CCC[C@]3(C)[C@@H]([C@H](C)/C=C/[C@H](C)C(C)C)CC[C@@H]23)C[C@@H](O)C[C@@H]1O', '1.4%'),
  ('CCOc1ccccc1OC(c1ccccc1)C1CNCCO1 (centres undefined)', '-0.0566%'),
  ('Cc1cc2nc3c(=O)[nH]c(=O)nc-3n(C[C@H](O)[C@H](O)[C@H](O)CO)c2cc1C', '2.29%'),
  ('CCCCCCCCOc1ccccc1C(=O)Nc1ccc(C(=O)OCC[N+](C)(CC)CC)cc1', '-1.27%'),
  ('O.O.O.O.O=C([O-])CC(O)(CC(=O)[O-])C(=O)[O-].[Li+].[Li+].[Li+]', '1.36%'),
  ('CN(C)CCc1c[nH]c2ccc(C[C@H]3COC(=O)N3)cc12', '-7.46%');

Reference source for all entries: the supplement of paper PMC8253809
